Cited source: PubChem BioAssay (NCI)

- System: A498 renal
- test protocol: NCI tumour cell line growth inhibition, 48 h
outcome measure: TGI (µM)
Kindly answer with a numeric value in µM, unit omitted.

Can you share its TGI? I mean this compound: Oc1cccc(Cn2c(-c3cccc(O)c3O)nc3ccccc32)c1O
60.4

Can you share its TGI? I mean this compound: C/C(=N\O)c1cccc(Nc2nc3ccccc3c3occc23)c1
29.2

Can you share its TGI? I mean this compound: O=S(=O)(NCCCNc1cc(-c2cn(-c3ccccc3)nc2-c2cccc(O)c2)ccn1)c1cccc2ccccc12
6.62

Can you share its TGI? I mean this compound: COc1c(B(O)O)cccc1-c1nc2c(F)cc3[nH]ncc3c2c2c1CCCC2
3.31

Can you share its TGI? I mean this compound: CC(=O)O[C@H]1CC[C@@]2(C)C(=CC[C@@H]3[C@@H]2CC[C@]2(C)c4c(cc(C#N)c(=N)n4C(C)=O)C[C@@H]32)C1
88.7

Can you share its TGI? I mean this compound: COc1ccc(-c2csc(NC(=O)N3CCN(c4cc5c(cc4F)c(=O)c(C(=O)O)cn5C4CC4)CC3)n2)cc1
15.6
